Molecular target: HLA-A0206 (Homo sapiens, UniProt P04439, D140Y/D185E/D98H/E176V/E277Q/F33Y/G131W/G231S/I119V/I121R/I166T/I218V/L300P/L318F/N151K/N90K/P208A/P217A/Q86G/Q94H/R138H/R169H/T345S)
Assay: Competitive peptide binding assay, HLA-A0206 transfected HMy2.CIR cells
Settings: HLA-A0206; 5 μM unlabeled peptide, reference peptide FLPSDK(FITC)FPSV 300 nM, 24 h, 4 °C
Let's look at some sequences and their measured 5 μM inhibition (%).
Measured Quantity: 5 μM inhibition (%)

- Ordered Residues: "FVFLVLLPLV [Epitope D12, S protein 2-11]"
  Numeric Readout: 17.08
- Ordered Residues: "FLAFVVFLL [Epitope A1, E protein 20-28]"
  Numeric Readout: 16.30
- Ordered Residues: "FIEDLLFNK [Epitope D42, S protein 817-825]"
  Numeric Readout: 9.26
- Ordered Residues: "WLTYTGAIKL [Epitope C3, N protein 330-339]"
  Numeric Readout: 12.65
- Ordered Residues: "VTLACFVLA [Epitope B12, M protein 60-68]"
  Numeric Readout: 17.00
- Ordered Residues: "LQSYGFQPT [Epitope D26, S protein 492-500]"
  Numeric Readout: 52.30
- Ordered Residues: "QTVTLLPAA [Epitope C10, N protein 390-398]"
  Numeric Readout: 17.08
- Ordered Residues: "LLLDRLNQL [Epitope C1, N protein 222-230]"
  Numeric Readout: 15.91

---

Molecular target: HLA-A0201 (Homo sapiens, UniProt P04439, D140Y/D185E/D98H/E176V/E277Q/G131W/G231S/I119V/I121R/I166T/I218V/L300P/L318F/N151K/N90K/P208A/P217A/Q86G/Q94H/R138H/R169H/T345S)
Experiment: Competitive peptide binding assay, HLA-A0201 transfected HMy2.CIR cells
Conditions: HLA-A0201; 5 μM unlabeled peptide, reference peptide FLPSDK(FITC)FPSV 300 nM, 24 h, 4 °C
Label scheme for 5 μM inhibition (%): low = under 20%, mid = from 20% up to 50%, high = 50% and over

- Ordered Residues: "AMRNAGIVGV [Epitope R4, RdRp protein 195-204]"
  Group Label: "mid"
- Ordered Residues: "YYVGYLQPR [Epitope D80, S protein 265-273]"
  Group Label: "low"
- Ordered Residues: "KLLEQWNLV [Epitope B2, M protein 15-23]"
  Group Label: "mid"
- Ordered Residues: "GLMWLSYFI [Epitope B1, M protein 89-97]"
  Group Label: "high"
- Ordered Residues: "MLDMYSVML [Epitope R12, RdRp protein 899-907]"
  Group Label: "high"
- Ordered Residues: "KLNDLCFTNV [Epitope D5, S protein 386-395]"
  Group Label: "low"
- Ordered Residues: "FLFLTWICLL [Epitope B4, M protein 26-35]"
  Group Label: "low"
- Ordered Residues: "VMCGGSLYV [Epitope R11, RdRp protein 667-675]"
  Group Label: "mid"
- Ordered Residues: "SLAIDAYPL [Epitope R5, RdRp protein 861-869]"
  Group Label: "high"
- Ordered Residues: "NLLKDCPAV [Epitope R6, RdRp protein 88-96]"
  Group Label: "low"
